Biological target: HCV NS3 helicase NS3h_1b(con1) (Hepatitis C virus genotype 1b, UniProt Q9WMX2)
Construct: truncated C-terminally His-tagged NS3 proteins lacking the N-terminal protease, called NS3h; His-tag (C); made in house
Sequence (Q9WMX2 1192-1657): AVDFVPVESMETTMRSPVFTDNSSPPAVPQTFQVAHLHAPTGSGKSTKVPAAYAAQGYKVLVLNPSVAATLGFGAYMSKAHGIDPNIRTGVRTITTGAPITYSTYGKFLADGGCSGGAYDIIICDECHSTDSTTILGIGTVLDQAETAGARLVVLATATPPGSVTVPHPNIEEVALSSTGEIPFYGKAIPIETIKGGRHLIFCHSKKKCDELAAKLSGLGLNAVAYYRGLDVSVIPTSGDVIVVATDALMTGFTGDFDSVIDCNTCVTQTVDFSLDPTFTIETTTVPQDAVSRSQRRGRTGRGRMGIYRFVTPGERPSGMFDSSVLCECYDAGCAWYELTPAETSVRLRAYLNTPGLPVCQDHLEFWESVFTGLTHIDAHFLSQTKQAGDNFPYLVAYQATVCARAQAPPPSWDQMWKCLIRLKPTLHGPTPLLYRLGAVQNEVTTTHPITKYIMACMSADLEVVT
Test: MBHA screen of NCI mechanistic set library at 20 μM (percent inhibition, compound interference)
Assay type: biochemical
Settings: compounds at 20 μM, MBHA with DNA substrate; calculated from Equation 1
MEASUREMENT NAME: Inh. (%) (Inhibition)
Numbers only here, please. The scale is %.

{"columns": ["COMPOUND", "Inh. (%) (Inhibition)"],
 "data": [
  ["Nc1nc(Cl)nc2c1ncn2[C@H]1C[C@H](O)[C@@H](CO)O1", 0.4],
  ["CC1=NN(C(=O)c2ccncc2)C(=O)C1N=Nc1ccc(F)cc1 (stereo not drawn)", "−2.8"],
  ["CC(=O)[O][Pb]([O]C(C)=O)([c]1ccccc1)[c]1ccccc1", "−12.2"],
  ["CN(C)CCOC1(Cc2ccc(Cl)cc2Cl)CCC(C(C)(C)C)CC1.Cl (stereo not drawn)", 17.9],
  ["CC(=O)c1sc2[n+](c1C)C(=O)/C(=C\\c1ccccc1Cl)S2", 3.1],
  ["COc1ccc2cc1Oc1ccc(cc1)CC1c3cc(c(OC)cc3CCN1C)Oc1c(OC)c(OC)cc3c1C(C2)N(C)CC3 (stereo not drawn)", "−9.0"]
]}

Ask: Tell me Inh. (%) (Inhibition) reported for CC(=O)SC(SC(C)=O)SC(C)=O
Result: −17.2

Ask: Tell me Inh. (%) (Inhibition) reported for O=c1oc2cc(O)ccc2c2oc3cc(O)ccc3c12
Result: 1.5

Ask: Tell me Inh. (%) (Inhibition) reported for S=C1Nc2cnc3ccccc3c2SC1c1ccccc1 (stereo not drawn)
Result: 33.3
